As shown below, each of these binders has a reported Kd value.
target: T1, human PD-L1 antigen (Beijing Sino Biological Inc, Catalog No. #10084-H08H-100) (human, UniProt Q9NZQ7 19-239); experiment: BLI (ForteBIO Octet), antibody captured on sensor, human PD-L1 in solution
T1 construct: Bought antigen; also called the antigen
T1 sequence (Q9NZQ7 19-239 limits assumed): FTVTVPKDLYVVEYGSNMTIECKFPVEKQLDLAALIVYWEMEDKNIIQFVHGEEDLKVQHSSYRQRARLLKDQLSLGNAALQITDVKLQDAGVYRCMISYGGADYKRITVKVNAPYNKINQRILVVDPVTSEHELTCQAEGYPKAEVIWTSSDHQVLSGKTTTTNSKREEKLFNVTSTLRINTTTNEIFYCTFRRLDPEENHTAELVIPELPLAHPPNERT
Include the unit right after the number.

Worked set:
binder="Antibody I-HX-4 (antibody, human IgG4 S228P, kappa, V domains shown) VH: VQLVQSGAEVKKPGASVKVSCKASGYTYNFYWMHWVRQAPGQGLEWMGAIYHVQSDTSYNQKFKGRVTITAVTSASTAYMELSSLRSEDTAVYYCTHWLEVYFHGMDHWGQGTLVTVSS VL: DIQMTQSPSSLSASVGDRVTITCRASQEIGQTLNWLQQKPGKAIKRLIYVTSSLDSGVPKRFSGSRSGSDYSLTISSLQPEDFATYYCLYFASSPFTFGQGTKLEIKR" reported_property=Kd observed_result="0.11 nM"
binder="Antibody I-HX-3 (antibody, human IgG4 S228P, kappa, V domains shown) VH: VQLVQSGAEVKKPGASVKVSCKASGYTYYFYWMHWVRQAPGQGLEWMGAIYHGNSETSYNQKFKGRVTITAVTSASTAYMELSSLRSEDTAVYYCTHWADAYFHGMNHWGQGTLVTVSS VL: DIQMTQSPSSLSASVGDRVTITCRASQNIANTLNWLQQKPGKAIKRLIYVSSSLDSGVPKRFSGSRSGSDYSLTISSLQPEDFATYYCLYYASYFFTFGQGTKLEIKR" reported_property=Kd observed_result="0.271 nM"
binder="Antibody I-HX-7 (antibody, human IgG4 S228P, kappa, V domains shown) VH: VQLVQSGAEVKKPGASVKVSCKASGYSFTTYWMHWVRQAPGQGLEWMGAIYWAHSETSYNQKFKGRVTITAVTSASTAYMELSSLRSEDTAVYYCTRWGDGYYHAMDHWGQGTLVTVSS VL: DIQMTQSPSSLSASVGDRVTITCRASQEIGQTLNWLQQKPGKAIKRLIYATSSLDSGVPKRFSGSRSGSDYSLTISSLQPEDFATYYCLYYASTPFTFGQGTKLEIKR" reported_property=Kd observed_result="0.047 nM"
binder="Antibody I-HX-8 (antibody, human IgG4 S228P, kappa, V domains shown) VH: VQLVQSGAEVKKPGASVKVSCKASGYSFTTYWMHWVRQAPGQGLEWMGAIYPVHSETSYNQKFKGRVTITAVTSASTAYMELSSLRSEDTAVYYCTHWIEAFFHLMQHWGQGTLVTVSS VL: DIQMTQSPSSLSASVGDRVTITCRASQNIGQTLNWLQQKPGKAIKRLIYSTSSLDSGVPKRFSGSRSGSDYSLTISSLQPEDFATYYCLQYASSPFTFGQGTKLEIKR" reported_property=Kd observed_result="0.259 nM"

Shifting focus to the binder that follows.
# return recorded Kd for entry Antibody I-HX-6 (antibody, human IgG4 S228P, kappa, V domains shown) VH: VQLVQSGAEVKKPGASVKVSCKASGYSFSSYWMHWVRQAPGQGLEWMGAIYPGQSETSYNQKFKGRVTITAVTSASTAYMELSSLRSEDTAVYYCTHWIDGYFHVMDHWGQGTLVTVSS VL: DIQMTQSPSSLSASVGDRVTITCRASQEIGQTLNWLQQKPGKAIKRLIYGTSSLDSGVPKRFSGSRSGSDYSLTISSLQPEDFATYYCLNYISSPFTFGQGTKLEIKR
0.0481 nM

Entry source: patent US20230143294A1
